# Test system: K-562 leukemia
# testName: NCI tumour cell line growth inhibition, 48 h
observable: TGI (µM)
Dear colleague, please return just the value in µM, with no unit written.

Data point: COc1ccc(C/C(=C(\C)c2ccc(OCCN3CCCC3)cc2)c2ccc(OCCN3CCCC3)cc2)cc1 ; TGI = 3.6

Lab book: TGI of O=C([CH-]C(=O)c1ccccc1)c1ccccc1.[CH-]1CCCCC1.[CH-]1CCCCC1.[CH-]1CCCCC1.[Sn+4] noted as 6.15

// field: TGI; key: CC(C)=CCc1[nH]c2ccccc2c1C1=C(O)C(=O)C(c2c(CC=C(C)C)[nH]c3ccccc23)=C(O)C1=O ; value = 6.31

----------
Exercise: state measured TGI for each of the molecules provided.
# Test system: CCRF-CEM leukemia
# testName: NCI tumour cell line growth inhibition, 48 h

The measured TGI associated with CC1=C(c2ccccc2)C(O)(c2ccccc2)C(C)C1=O (stereo not drawn) reads > 100 µM

Consider Cc1cc2c(cc1Cl)S/C(=C/C(=O)O)C(Nc1ccc3ncsc3c1)=NS2(=O)=O . Its measured TGI is > 53.5 µM

Entry C=C/C=C/[C@@H](O)CC(=C)C[C@H]1OC2[C@H](C)[C@@H](OC(=O)C[C@H]3C[C@H](OC(C)=O)C[C@@]4(C[C@@](C)(O)C[C@H](CC(=C)[C@@H](C)[C@H](OC(C)=O)[C@H](C)C(=O)C[C@@H]5C[C@H](OC)CC6(C[C@@H](O)C[C@H](/C=C\CCC[C@H]7O[C@](O)(C=C[C@H]7C)[C@H]2O)O6)O5)O4)O3)[C@@H]1O , TGI reported as > 25 µM

# TGI (molecule: Cc1ccc(-c2nc(N/N=C/c3ccc(O)cc3)c3ccccc3n2)cc1 ) is > 100 µM

The molecule O=C(NC(=O)c1cc(-c2ccccc2)n[nH]1)c1ccccc1 showed TGI equal to > 100 µM

Cc1cc(S(=O)(=O)Nc2nc3ccccc3nc2-c2ccc(Cl)cc2)c(S)cc1Cl has a reported TGI of 58.1 µM

Per the records, this molecule ( Cc1csc2c1-n1cccc1C2=O ) has TGI equal to > 100 µM

Query O=[N+]([O-])C=C(c1ccc(Cl)cc1)c1ccc(Cl)cc1 yields TGI of 67.7 µM

----------
# Test system: U251 CNS
# testName: NCI tumour cell line growth inhibition, 48 h
observable: TGI (µM)
State the answer as a number, implicitly in µM.

Value sought: TGI, system U251 CNS, item COC12C=C/C(=C(/C(=O)OCc3ccccn3)C(=O)CCCCCCCCC3(OC)C=C/C(=C(/C(=O)OCc4ccccn4)C(=O)CCCCCCCC1)O3)O2 . Result: 1.52

Per the reported U251 CNS data, COc1ccc(C/C(=C(\C)c2ccc(OCCN3CCCC3)cc2)c2ccc(OCCN3CCCC3)cc2)cc1 has TGI of 3.32

Reported TGI (U251 CNS) for entry CCCCCCCCCCCCCCCCCCn1cc[n+](C)c1 is 1.51

The measured TGI that Cc1cccc(C2SCc3nc4ccccc4n32)c1 (stereo not given) showed for U251 CNS is 47.2

----------
Give measured TGI for each item. Keep answers brief.
# System: SK-MEL-28 melanoma
# testName: NCI tumour cell line growth inhibition, 48 h

// TGI lookup, compound = S=c1[nH]n2c(CCCCCCCCc3nnc4sc(=S)[nH]n34)nnc2s1 , result: > 100 µM

Short answer for COc1ccccc1NC(=O)CC(=O)N1N=C(N2c3ccccc3Sc3ccccc32)CC1c1ccccc1 (stereo not given) : TGI was > 100 µM

// TGI lookup, compound = CC(=O)Oc1c(-c2ccccc2)sc2ccccc12 , result: 53.1 µM

Briefly, TGI measured for COc1ccc2c(c1OC)CO[C@@H]2[C@H]1c2c(cc3c(c2OC)OCO3)CCN1S(=O)(=O)c1cn(C)cn1 : > 100 µM

TGI measured on O=C(/C=C/c1ccccc1F)c1ccc(Cl)c(Cl)c1 = > 100 µM
